- STUDY_SYSTEM: Neuronal acetylcholine receptor; alpha3/beta4 (Rattus norvegicus, UniProt P04757+P12392)
- Sequence (P04757 whole entry): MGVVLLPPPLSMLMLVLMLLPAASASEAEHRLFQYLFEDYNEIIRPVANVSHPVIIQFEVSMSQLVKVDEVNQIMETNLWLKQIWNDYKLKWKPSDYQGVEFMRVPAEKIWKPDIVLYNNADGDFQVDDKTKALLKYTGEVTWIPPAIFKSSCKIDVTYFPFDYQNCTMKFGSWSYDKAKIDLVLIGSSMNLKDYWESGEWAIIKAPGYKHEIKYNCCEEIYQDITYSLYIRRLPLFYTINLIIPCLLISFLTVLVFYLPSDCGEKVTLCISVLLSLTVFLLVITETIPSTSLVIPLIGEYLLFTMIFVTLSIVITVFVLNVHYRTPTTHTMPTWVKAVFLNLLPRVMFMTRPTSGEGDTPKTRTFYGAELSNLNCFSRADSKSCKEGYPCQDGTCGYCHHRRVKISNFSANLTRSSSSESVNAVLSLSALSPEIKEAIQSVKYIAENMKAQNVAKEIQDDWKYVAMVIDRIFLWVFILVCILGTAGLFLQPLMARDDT
- Sequence (P12392 whole entry): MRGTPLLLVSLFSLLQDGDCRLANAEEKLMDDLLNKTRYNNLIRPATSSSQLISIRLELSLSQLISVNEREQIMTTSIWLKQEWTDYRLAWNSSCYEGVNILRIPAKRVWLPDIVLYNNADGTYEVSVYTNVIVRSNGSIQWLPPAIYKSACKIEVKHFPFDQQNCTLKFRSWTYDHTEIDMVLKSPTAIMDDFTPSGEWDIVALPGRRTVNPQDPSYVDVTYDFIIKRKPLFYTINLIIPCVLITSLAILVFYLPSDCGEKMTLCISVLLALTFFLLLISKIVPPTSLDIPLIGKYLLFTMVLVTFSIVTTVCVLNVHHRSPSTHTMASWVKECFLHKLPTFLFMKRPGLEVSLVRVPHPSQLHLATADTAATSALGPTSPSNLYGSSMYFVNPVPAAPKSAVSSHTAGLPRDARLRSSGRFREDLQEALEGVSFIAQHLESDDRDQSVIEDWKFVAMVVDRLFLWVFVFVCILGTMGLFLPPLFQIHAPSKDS
- ASSAY_OVERVIEW: Displacement of [3H]epibatidine from rat alpha3beta4 nAChR transfected in HEK293 cells by liquid scintillation counting
- Assay type: cell-based
Known Ki of a selection of compounds

# INPUT_SMILES, STUDY_SYSTEM, UNIT, RESULT_COMPARATOR, Ki
rows = [
    ("c1cc2cc(-c3ccc(N4CCOCC4)nn3)ccc2[nH]1", "Neuronal acetylcholine receptor; alpha3/beta4 (Rattus norvegicus, UniProt P04757+P12392)", "µM", ">", 10),
    ("O=C(CCCCN1CCOCC1)Nc1ccc(-c2cccnc2F)cc1", "Neuronal acetylcholine receptor; alpha3/beta4 (Rattus norvegicus, UniProt P04757+P12392)", "µM", ">", 10),
    ("c1ccc(-c2ccc(N3CCCCC3)nn2)cc1", "Neuronal acetylcholine receptor; alpha3/beta4 (Rattus norvegicus, UniProt P04757+P12392)", "µM", ">", 10),
    ("CN1CCN(CCCCC(=O)Nc2ccc(-c3cccnc3)cc2)CC1", "Neuronal acetylcholine receptor; alpha3/beta4 (Rattus norvegicus, UniProt P04757+P12392)", "µM", "=", 313),
    ("CN1CCN(CCCCC(=O)Nc2ccc(-c3ccccc3)cc2)CC1", "Neuronal acetylcholine receptor; alpha3/beta4 (Rattus norvegicus, UniProt P04757+P12392)", "µM", "=", 88.1),
    ("O=C(CCCCN1CCCCC1)Nc1ccc(-c2ccccc2)cc1", "Neuronal acetylcholine receptor; alpha3/beta4 (Rattus norvegicus, UniProt P04757+P12392)", "µM", "=", 2.6),
]
